system: T-cell; assay: IL-2 secretion from T-cells stimulated with anti-CD3 antibody alone (Biological Example 2); format: cell-based; conditions: 1 μM compound, primary human total T-cells, read-out: IL-2 secretion, Anti-CD3 stimulation, fold change over baseline
Measured Endpoint: fold induction at 1 µM

[[record]]
compound = "C[C@@H](c1cc2c(c(C(F)(F)F)c1)CN(c1cccc(C3(Cc4nncn4C)COC3)c1)C2=O)N1CC(C)(F)C1 [Compound 543a]"
assay_result = "> 0.201"

[[record]]
compound = "Cc1conc1CC1(c2cccc(N3Cc4c(cc(CN5CCC6(CC6)C5)cc4C(F)(F)F)C3=O)c2)COC1"
assay_result = "> 0.201"

[[record]]
compound = "C[C@H](c1cc2c(c(C(F)(F)F)c1)CN(c1cccc(C3(Cc4nncn4C)COC3)c1)C2=O)N1C[C@H]2C[C@H]2C1 [Compound 541b]"
assay_result = "> 0.201"

[[record]]
compound = "Cn1cnnc1C(F)(F)[C@](C)(F)c1cccc(N2Cc3c(cc(CN4CC(C(F)F)C4)cc3C(F)(F)F)C2=O)c1"
assay_result = "> 0.201"

[[record]]
compound = "Cc1conc1CC1(c2cccc(NC(=O)c3cc(CN4CCC5(CC5)C4)nc(C4CC4)n3)c2)COC1"
assay_result = "> 0.201"

[[record]]
compound = "Cn1cnnc1CC1(c2cccc(N3Cc4c(cc(CN5CC[C@@H]6C[C@@H]65)cc4C(F)(F)F)C3=O)c2)COC1 (single isomer, unassigned) [Compound 486b]"
assay_result = "> 0.201"

[[record]]
compound = "CC(O)c1cc2c(c(C(F)(F)F)c1)CN(c1cccc(C3(Cc4nncn4C)COC3)c1)C2=O (centres unmarked)"
assay_result = "0.151 to 0.2"

[[record]]
compound = "C[C@H](Cc1nncn1C)c1cc(N[C@@H](C)CO)nc(N2Cc3c(cccc3C(F)(F)F)C2=O)c1"
assay_result = "0.051 to 0.1"


// recorded fold induction at 1 µM for C[C@H](O)CNc1cc([C@H](C)Cc2nncn2C)cc(N2Cc3c(cccc3C(F)(F)F)C2=O)n1 : 0.051 to 0.1

The values you see were collected from patent US20220324835A1.
